# TESTED SYSTEM: T1, soluble gp34 wild type ectodomain, V5-His tagged (sgp34wt-V5-His) (HCMV strain AD169)
# T1 construct: Entry holds signal peptide 1-23 (left out), ectodomain, V5 tag and His tag; Forms monomers, dimers and higher oligomers; also called sol gp34 wt; gp34 1-179
# T1 chain: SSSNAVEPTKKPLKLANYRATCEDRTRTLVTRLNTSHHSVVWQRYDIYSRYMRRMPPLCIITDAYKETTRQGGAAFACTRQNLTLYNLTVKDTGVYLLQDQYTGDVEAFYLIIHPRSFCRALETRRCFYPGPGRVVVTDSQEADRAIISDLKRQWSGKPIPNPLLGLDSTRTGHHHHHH
# EXPERIMENT NOTES: blocking of sgp34wt binding to immobilized human IgG, ELISA
OBSERVABLE: IC50
Write down the value, and be sure its unit follows.

Some entries whose results are on file:
{"columns": ["BINDER", "OBSERVABLE", "ENDPOINT RESULT"],
 "data": [
  ["gp34mtrp.04 (antibody, V domains shown, mouse IgG1 hybridoma mAb; leader in entries; also called anti gp34 clone mtrp.04) VH: EVKLVQSGTVLARPGASVKMSCKASGYTFTSYWMHWVKQRPGQGLEWIGAIYPGNSDTGYNQKFKGKARLTAVTSTSTAYLELSSLTDEDSAVYFCTRLGYGDYWGQGTTLTVSS VL: DIVMTQTPSSMYASLGERVTITCKASQDINSYLTWFQQKPGKSPKTLIYRANRLVDGVPSRFSGSGSGQDYSLTINSLDYEDMGIYYCLQYDEFPPTFGGGTKLEIK", "IC50", "0.147 µg/mL"],
  ["gp34wt.07 (antibody, V domains shown, mouse IgG1 hybridoma mAb; leader in entries; also called anti gp34 clone wt.07) VH: QVKLEESGPELVKTGASVKISCKASGYSFTSYQIYWVKQSHGKSLEWIGHISCYNGATSYNQKFKDKATFTVDTSSSTAYMQFNSLTSEDSAVYFCARYDYAPDYYAMDYWGQGTSVTVSS VL: DIVLTQTPASLAVSLGQRATISCRASESVDSYGNSFMHWYQQKPGQPPKLLIYLASNLESGVPARFSGSGSRTDFTLTIDPVEAEDAAIYYCQQNNEDPLTFGGGTKLELK", "IC50", "0.447 µg/mL"]
]}

Now look at this one.
Which IC50 value is on record for gp34mtrp.05 (antibody, V domains shown, mouse IgG1 hybridoma mAb; leader in entries; also called anti gp34 clone mtrp.05) VH: EVKLLQSGPEVKKPGETVKISCKASGYTFTNYGMSWLRQAPGKGLKWMGWINTYTGEPTYADDFKGRFAFSLETSASTAYFQINNLKDEDTTTYFCARRAFGGLDYWGQGTSVTVSS VL: DIVMTQSPLSLPVSLGDQASISCRSSQSIVYTNGNTYLEWYLQKPGQSPKLLIYKVSNRFSGVPDRFSGSGSGTDFTLKISRVEAEDLGVYYCFQGSHVPWTFGGGTKLEIK ?
5.34 µg/mL
